The values you see were collected from patent US20250074910A1.

test system: MOLM-13; assay: Cell proliferation inhibition (CellTiter-Glo), MOLM-13; format: cell-based; conditions: MOLM-13 cells, 168 h
Metric name: GI50 (nM)

Some solved cases for reference:
Compound	Target or test system	Metric name	Meas value
CCN(C(=O)c1cc(F)ccc1Oc1cncnc1N1CC2(CCN(CC3CC4CCC3CC43COC(=O)N3)CC2)C1)C(C)C (single isomer, unassigned) [Example 50-2b]	MOLM-13	GI50	93.3
CC(C)N(C(=O)c1cc(F)ccc1Oc1cncnc1N1CC2(CCN(CC3CC4CCC3CC43COC(=O)N3)CC2)C1)C(C)C (single isomer, unassigned) [Example 51-2]	MOLM-13	GI50	93.3
CC(C)N(C(=O)c1cc(F)ccc1Oc1nncnc1N1CC2(CCN(C[C@H]3CC[C@]4(CC3)CC(C(C)(C)O)C(=O)N4)CC2)C1)C(C)C (single isomer, unassigned) [Example 59-1b]	MOLM-13	GI50	34.3

A = CCN(C(=O)c1cc(F)ccc1Oc1cncnc1N1CC2(CCN(CC3CC4CCC3CC43COC(=O)N3)CC2)C1)C(C)C (single isomer, unassigned) [Example 50-2a]
B = CC(C)N(C(=O)c1cc(F)ccc1Oc1nncnc1N1CC2(CCN(CC3CCC4(CC3)CC3(CC3)C(=O)N4)CC2)C1)C(C)C (single isomer, unassigned) [Example 44-2]
Lookup: Response body: label of entry with the larger GI50; valid values A , B . State the label of the item chosen.
Found: A
